Test: Intrinsic clearance in CD-1 mouse liver microsomes after 0.5 to 4 hrs by UPLC-MS analysis
Format: ADME
Conditions: read-out: CLH
valueKind: CLint scaled (mL/min/kg)
Entry rule: numbers only, all in mL/min/kg.

>>> recordedmeasurement("COCCOc1cc2ncnc(-n3nc(-c4ccccn4)nc3N)c2cc1OCCOC")
22.9
>>> recordedmeasurement("COc1cc2ncnc(-n3nc(-c4ccccn4)nc3N)c2cc1OCCCNC(=O)OC(C)C")
329
>>> recordedmeasurement("COCCOc1cc2c(-n3nc(-c4ccccn4)nc3N)ncnc2cc1OC")
27.1

Query: # CLint scaled lookup, item `COc1cc2ncnc(-n3nc(-c4ccccn4)nc3N)c2cc1OC`
Response: 61.7

---

Assay: Tmax in C57BL/6 mouse at 20 mg/kg, iv by UPLC-MS analysis
Assay type: ADME, organism-based
Conditions: in vivo
valueKind: Tmax (min)
Just the number in min, nothing appended.

Query: Please give the measured Tmax for this compound: `COc1cc2ncnc(-n3nc(-c4ccccn4)nc3N)c2cc1OC`
Response: 5

---

Test: Half life in dog liver microsomes by UPLC-MS analysis
Type: ADME, Canis lupus familiaris
Recorded half-life by entry

Consider the following illustrative entries.
>>> recordedmeasurement("COCCOc1cc2c(-n3nc(-c4ccccn4)nc3N)ncnc2cc1OC")
"> 4 h"
>>> recordedmeasurement("COc1cc2ncnc(-n3nc(-c4ccccn4)nc3N)c2cc1OC")
"0.6 h"
>>> recordedmeasurement("COc1cc2ncnc(-n3nc(-c4ccccn4)nc3N)c2cc1OCCCNC(=O)OC(C)C")
"> 4 h"

Okay, next one:
Query: Return reported half-life; argument: `COCCOc1cc2ncnc(-n3nc(-c4ccccn4)nc3N)c2cc1OCCOC`
Response: > 4 h

---

Experiment: Half life in rat liver microsomes by UPLC-MS analysis
Assay type: ADME
valueKind: half-life (h)
Provide only the numeric value, understood in h.

>>> recordedmeasurement("COc1cc2ncnc(-n3nc(-c4ccccn4)nc3N)c2cc1OC")
0.8

Query: What value of half-life has been reported for the following compound? `COc1cc2ncnc(-n3nc(-c4ccccn4)nc3N)c2cc1OCCCNC(=O)OC(C)C`
Response: 1

---

Experiment: Permeability of the compound at 10 uM after 30 mins by PAMPA
Format: ADME
Details: read-out: permeability
valueKind: Papp at 0.5 h, 10 µM (×10⁻⁶ cm/s)
Report the value in ×10⁻⁶ cm/s with no unit label.

Example entries and their recorded answers appear below.
>>> recordedmeasurement("COCCOc1cc2ncnc(-n3nc(-c4ccccn4)nc3N)c2cc1OCCOC")
16.6
>>> recordedmeasurement("COc1cc2ncnc(-n3nc(-c4ccccn4)nc3N)c2cc1OC")
95.9
>>> recordedmeasurement("COc1cc2ncnc(-n3nc(-c4ccccn4)nc3N)c2cc1OCCCNC(=O)OC(C)C")
432

Query: Reported Papp at 0.5 h, 10 µM for `COCCOc1cc2c(-n3nc(-c4ccccn4)nc3N)ncnc2cc1OC` : what is it?
Response: 196

---

Assay: Half life of the compound in aqueous buffer
Format: physicochemical
valueKind: half-life

Query: Field request: half-life | item: `COc1cc2ncnc(-n3nc(-c4ccccn4)nc3N)c2cc1OC`
Response: > 48 h

---

System: Plasma
Assay: Stability in mouse plasma assessed as compound stability time by UPLC-MS analysis
Format: ADME, cell-free
Listed below: Stability values for each entry.

>>> recordedmeasurement("COCCOc1cc2ncnc(-n3nc(-c4ccccn4)nc3N)c2cc1OCCOC")
"> 48 h"
>>> recordedmeasurement("COc1cc2ncnc(-n3nc(-c4ccccn4)nc3N)c2cc1OCCCNC(=O)OC(C)C")
"> 24 h"
>>> recordedmeasurement("COc1cc2ncnc(-n3nc(-c4ccccn4)nc3N)c2cc1OC")
"> 48 h"

Now look at this entry.
Query: Could you share which Stability value was measured for `COCCOc1cc2c(-n3nc(-c4ccccn4)nc3N)ncnc2cc1OC` ?
Response: > 48 h
